biological target: human CD4 (CD4-YFP) expression in CHO•CD4-YFP cells (Homo sapiens); test: CD4 down-modulation in CHO cells stably expressing CD4-YFP; assay type: cell-based; conditions: read-out: IC50 CD4 (μM) mean ± SD; 50% down-modulation of CD4 expression, stably CD4-YFP transfected CHO cells, 24 h drug treatment; n = 3; cyclohexylmethyl-tailed compounds
Sorting guide: entries reporting DC50 beneath 1 µM go in the true pile, the rest go in the false pile.

| compound | label.value |
| --- | --- |
| C=C1CN(S(=O)(=O)c2ccc(C)cc2)CCCN(CC2CCCCC2)CCCN(S(=O)(=O)c2ccc(OCCCN3C(=O)c4ccccc4C3=O)cc2)C1 | true |
| C=C1CN(S(=O)(=O)c2ccc(C)cc2)CCCN(CC2CCCCC2)CCCN(S(=O)(=O)c2ccc(OCC)cc2)C1 | true |
| C=C1CN(S(=O)(=O)c2ccc(C)cc2)CCCN(CC2CCCCC2)CCCN(S(=O)(=O)c2ccc(OCCCC)cc2)C1 | false |
| C=C1CN(S(=O)(=O)c2ccc(C)cc2)CCCN(CC2CCCCC2)CCCN(S(=O)(=O)c2ccc(OC)cc2)C1 [Compound 1, reference compound] | true |
| C=C1CN(S(=O)(=O)c2ccc(C)cc2)CCCN(CC2CCCCC2)CCCN(S(=O)(=O)c2ccc(-n3cccc3)cc2)C1 | true |
| C=C1CN(S(=O)(=O)c2ccc(C)cc2)CCCN(CC2CCCCC2)CCCN(S(=O)(=O)c2ccc(N(C)C)cc2)C1 | true |
| C=C1CN(S(=O)(=O)c2ccc(C)cc2)CCCN(CC2CCCCC2)CCCN(S(=O)(=O)c2ccc(OCCCN)cc2)C1 | false |
| C=C1CN(S(=O)(=O)c2ccc(C)cc2)CCCN(CC2CCCCC2)CCCN(S(=O)(=O)c2ccc(N3CCOCC3)cc2)C1 | true |
| C=C1CN(S(=O)(=O)c2ccc(C)cc2)CCCN(CC2CCCCC2)CCCN(S(=O)(=O)c2ccc(O)cc2)C1 | false |
